Listing of recorded CC50 by entry.
Test Description: Cytotoxicity against rat L6 cells
Assay type: cell-based
Form entry: value (µM) — number only.

Consider the reported CC50 for these compounds:
* N/C(=N\O)Nc1ccc(NC(=O)c2ccc(N/C(N)=N/O)cc2)cc1 | 100
* C/N=C(\N)Nc1ccc(NC(=O)Nc2ccc(N/C(N)=N/C)cc2)cc1.Cl | 177
* CC/N=C(\N)Nc1ccc(NC(=O)Nc2ccc(N/C(N)=N/CC)cc2)cc1.Cl | 116
* CC(C)/N=C(\N)Nc1ccc(NC(=O)Nc2ccc(N/C(N)=N/C(C)C)cc2)cc1.Cl | 126

Identify measured CC50 associated with CC/N=C(\N)Nc1ccc(NC(=O)c2ccc(N/C(N)=N/CC)cc2)cc1.Cl
118

====

Test Description: Selectivity index, ratio of CC50 for rat L6 cells to IC50 for Trypanosoma brucei rhodesiense
Format: functional
Listing of recorded Ratio CC50/IC50 by entry.

Consider the reported Ratio CC50/IC50 for these compounds:
- CC(C)/N=C(\N)Nc1ccc(NC(=O)c2ccc(N/C(N)=N/C(C)C)cc2)cc1.Cl: 9364
- CC/N=C(\N)Nc1ccc(NC(=O)c2ccc(N/C(N)=N/CC)cc2)cc1.Cl: 13111
- C/N=C(\N)Nc1ccc(NC(=O)Nc2ccc(N/C(N)=N/C)cc2)cc1.Cl: 670
- C/N=C(\N)Nc1ccc(NC(=O)c2ccc(N/C(N)=N/C)cc2)cc1.Cl: 977
- CC(C)/N=C(\N)Nc1ccc(NC(=O)Nc2ccc(N/C(N)=N/C(C)C)cc2)cc1.Cl: 2571

Identify measured Ratio CC50/IC50 associated with Nc1nc(N)nc(Nc2ccc([As]3SCC(CO)S3)cc2)n1 (configuration not stated)
>1000

Identify measured Ratio CC50/IC50 associated with CC/N=C(\N)Nc1ccc(NC(=O)Nc2ccc(N/C(N)=N/CC)cc2)cc1.Cl
1289

====

Test Description: Cytotoxicity against rat L6 cells
Format: cell-based
Lab note - cut at 100 µM for CC50: 1.0 if strictly below, 0.0 if not.

Field: example entries. Status: answers known.
- N/C(=N\OCc1ccccc1)Nc1ccc(NC(=O)c2ccc(N/C(N)=N/OCc3ccccc3)cc2)cc1: 1.0
- CO/N=C(\N)Nc1ccc(NC(=O)c2ccc(N/C(N)=N/OC)cc2)cc1: 0.0
- N/C(=N\OC1CCCCO1)Nc1ccc(NC(=O)c2ccc(N/C(N)=N/OC3CCCCO3)cc2)cc1 (stereo not given): 0.0

Let us examine a further case.
Dear reviewer, please state whether C/N=C(\N)Nc1ccc(NC(=O)c2ccc(N/C(N)=N/C)cc2)cc1.Cl has CC50 strictly beneath 100 µM.
0.0

The values you see were collected from ChEMBL document CHEMBL3259603.
